Test system: 435261-313-R-J1-PDC tumor spheroid viability
Experiment: Anticancer human tumor 435261-313-R-J1-PDC patient-derived colon adenocarcinoma cell line growth inhibition [PI3K]
Conditions: second compound 0.0316 µM; first compound 0.0316 µM; stronger effect = lower value; spheroids with HUVEC and MSC
Excerpt: Combinatorial screen of targeted agents with the PI3K inhibitors inavolisib, alpelisib, duvelisib, and copanlisib in multi-cell type tumor spheroids A high-throughput screen of multi-cell type tumor spheroids was designed to identify active combinations of targeted small molecules and PI3K pathway inhibitors. […] Compounds. […] If the clinical Cmax for an agent had not been determined, the highest concentration tested was 10 microM. […]
MEASURE_NAME: viability, T/C

[[record]]
molecule = "Cn1nccc1Nc1nccc(-c2ccn(C(CO)c3ccc(Cl)c(F)c3)c(=O)c2)n1 (configuration not stated) + CC(Nc1ncnc2nc[nH]c12)c1cc2cccc(Cl)c2c(=O)n1-c1ccccc1"
measure_name = "viability, T/C"
reported_result = "83.5%"

[[record]]
molecule = "C[C@@H](NC(=O)c1ncnc(N)c1Cl)c1ncc(C(=O)Nc2cc(C(F)(F)F)c(Cl)cn2)s1 + CC(Nc1ccc2c(c1)OCCn1cc(N3C(=O)OCC3C(F)F)nc1-2)C(N)=O"
measure_name = "viability, T/C"
reported_result = "99.4%"

[[record]]
molecule = "CC(C)NCC(C(=O)N1CCN(c2ncnc3c2C(C)CC3O)CC1)c1ccc(Cl)cc1 (configuration not stated) + CC(Nc1ncnc2nc[nH]c12)c1cc2cccc(Cl)c2c(=O)n1-c1ccccc1"
measure_name = "viability, T/C"
reported_result = "98.3%"

[[record]]
molecule = "CCN1CCN(Cc2ccc(Nc3ncc(F)c(-c4cc(F)c5nc(C)n(C(C)C)c5c4)n3)nc2)CC1 + CC(Nc1ncnc2nc[nH]c12)c1cc2cccc(Cl)c2c(=O)n1-c1ccccc1"
measure_name = "viability, T/C"
reported_result = "63.5%"

[[record]]
molecule = "Cn1ncc(Cl)c1-c1cc(C(=O)NC(CN)Cc2cccc(F)c2)sc1Cl (configuration not stated) + CC(Nc1ccc2c(c1)OCCn1cc(N3C(=O)OCC3C(F)F)nc1-2)C(N)=O"
measure_name = "viability, T/C"
reported_result = "67.8%"

[[record]]
molecule = "Cn1ncc(Cl)c1-c1cc(C(=O)NC(CN)Cc2cccc(F)c2)sc1Cl (configuration not stated) + CC(Nc1ncnc2nc[nH]c12)c1cc2cccc(Cl)c2c(=O)n1-c1ccccc1"
measure_name = "viability, T/C"
reported_result = "95.1%"

[[record]]
molecule = "CNC(=O)c1ccc(N2C(=S)N(c3ccc(C#N)c(C(F)(F)F)c3)C(=O)C2(C)C)cc1F + CC(Nc1ccc2c(c1)OCCn1cc(N3C(=O)OCC3C(F)F)nc1-2)C(N)=O"
measure_name = "viability, T/C"
reported_result = "69.8%"


====

Test system: 435261-313-R-J1-PDC tumor spheroid viability
Assay: Anticancer human tumor 435261-313-R-J1-PDC cell line growth inhibition [PI3K];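 further: spheroids exposed to compounds for 7 days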
Conditions: curve of first compound; second compound 0.00316 µM; spheroids with HUVEC and MSC
Each entry below carries its recorded IC50.
MEASURE_NAME: IC50

[[record]]
compound = "CC(Cn1ccc(-c2ccc(C#N)c(Cl)c2)n1)NC(=O)c1cc(C(C)O)[nH]n1 (stereo not drawn) + CC(Nc1ccc2c(c1)OCCn1cc(N3C(=O)OCC3C(F)F)nc1-2)C(N)=O"
test_system = "435261-313-R-J1-PDC tumor spheroid viability"
reported_result = "> 10 µM"

[[record]]
compound = "C=CC(=O)N1CCN(c2nc(=O)n(-c3c(C)ccnc3C(C)C)c3nc(-c4c(O)cccc4F)c(F)cc23)C(C)C1 (stereo not drawn) + CC(Nc1ccc2c(c1)OCCn1cc(N3C(=O)OCC3C(F)F)nc1-2)C(N)=O"
test_system = "435261-313-R-J1-PDC tumor spheroid viability"
reported_result = "> 10 µM"

[[record]]
compound = "Cn1cnc2c(F)c(Nc3ccc(Br)cc3Cl)c(C(=O)NOCCO)cc21 + COc1c(OCCCN2CCOCC2)ccc2c3n(c(=NC(=O)c4cnc(N)nc4)nc12)CCN3"
test_system = "435261-313-R-J1-PDC tumor spheroid viability"
reported_result = "< 0.00949 µM"


====

System: 435261-313-R-J1-PDC tumor spheroid viability
Test: Anticancer human tumor 435261-313-R-J1-PDC cell line growth inhibition [PI3K];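 further: spheroids exposed to compounds for 7 days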
Details: second compound 0.1 µM; first compound 0.1 µM; stronger effect = lower value; spheroids with HUVEC and MSC
MEASURE_NAME: viability, T/C

[[record]]
compound = "Cn1ncc(Cl)c1-c1cc(C(=O)NC(CN)Cc2cccc(F)c2)sc1Cl (centres undefined) + Cc1nc(NC(=O)N2CCCC2C(N)=O)sc1-c1ccnc(C(C)(C)C(F)(F)F)c1"
measure_name = "viability, T/C"
reported_result = "82%"

[[record]]
compound = "CC1(C)CCC(CN2CCN(c3ccc(C(=O)NS(=O)(=O)c4ccc(NCC5CCOCC5)c([N+](=O)[O-])c4)c(Oc4cnc5[nH]ccc5c4)c3)CC2)=C(c2ccc(Cl)cc2)C1 + CC(Nc1ccc2c(c1)OCCn1cc(N3C(=O)OCC3C(F)F)nc1-2)C(N)=O"
measure_name = "viability, T/C"
reported_result = "39.8%"

[[record]]
compound = "CC1(C)CCC(Nc2ncc(C(F)(F)F)c(-c3c[nH]c4c(P(C)(C)=O)c(C#N)ccc34)n2)CN1 (centres undefined) + CC(Nc1ccc2c(c1)OCCn1cc(N3C(=O)OCC3C(F)F)nc1-2)C(N)=O"
measure_name = "viability, T/C"
reported_result = "31.6%"

[[record]]
compound = "CCN1CCN(Cc2ccc(Nc3ncc(F)c(-c4cc(F)c5nc(C)n(C(C)C)c5c4)n3)nc2)CC1 + CC(Nc1ncnc2nc[nH]c12)c1cc2cccc(Cl)c2c(=O)n1-c1ccccc1"
measure_name = "viability, T/C"
reported_result = "54.3%"

